- System: Pseudomonas fluorescens
- ASSAY TEXT: Antibacterial activity against Pseudomonas fluorescens NCIB 3756 after 24 hrs by agar well diffusion method; further: test concentration or dose not given here
- Format: functional

# COMPOUND, ENDPOINT UNIT, inhibition zone (IZ)
records = [
    ("O=c1[nH]c2ccccc2nc1N/N=C1\\CCCCC1Br (configuration not stated)", "mm", 0),
    ("NNc1nc2ccccc2[nH]c1=O", "mm", 0),
    ("O=c1[nH]c2ccccc2nc1NN=C1CCCC1", "mm", 10),
    ("CCC(CC)=NNc1nc2ccccc2[nH]c1=O", "mm", 0),
    ("C/C(=N\\Nc1nc2ccccc2[nH]c1=O)c1cc2cc(Cl)ccc2oc1=O", "mm", 10),
    ("C/C(=N\\Nc1nc2ccccc2[nH]c1=O)c1cc2ccccc2oc1=O", "mm", 0),
    ("O=c1[nH]c2ccccc2nc1NN=C1CCCCC1", "mm", 12),
    ("Cc1ccc2c(c1)/C(=N/Nc1nc3ccccc3[nH]c1=O)C(=O)N2", "mm", 0),
    ("CC1CCCC/C1=N\\Nc1nc2ccccc2[nH]c1=O (configuration not stated)", "mm", 13),
    ("O=C1Nc2ccc(Cl)cc2/C1=N/Nc1nc2ccccc2[nH]c1=O", "mm", 0),
    ("O=C1Nc2ccccc2/C1=N/Nc1nc2ccccc2[nH]c1=O", "mm", 0),
    ("O=c1[nH]c2ccccc2nc1N/N=C1\\CCCCC1Cl (configuration not stated)", "mm", 9),
]

Hello, the source for this data is ChEMBL document CHEMBL1157693, in case you need it.
